TARGET SYSTEM: T1, human CLDN18.2 (human)
T1 construct: the HEK293 line was made with a GenScript plasmid; also called hCLDN18.2
MEASUREMENT DESCRIPTION: FACS on HEK293/hCLDN18.2 cells
Parameter: Emax (MFI). Scope: all listed entries.

BINDER | Emax (MFI)
PR007243 (antibody, human IgG1, V domains shown, HCDR2 PTM-removal mutant of PR004533; HCAb, human IgG1 Fc; also called 4533_M3D9) VH: EVQLVESGGGLVQPGGSLRLSCAASGFTFSSYWMHWVRQVPGKGLVWVSRISSAGSRTIYADSVKGRFTISRDNAKNTLYLQMNSLRAEDTAVYYCARGEDHDILTGYPIRGQGTTVTVSS | 1.47e+06 MFI

// PR007248 (antibody, human IgG1, V domains shown, HCDR2 PTM-removal mutant of PR004533; HCAb, human IgG1 Fc; also called 4533_M10E7) VH: EVQLVESGGGLVQPGGSLRLSCAASGFTFSSYWMHWVRQVPGKGLVWVSRINHDSSRTIYADSVKGRFTISRDNAKNTLYLQMNSLRAEDTAVYYCARGEDHDILTGYPIRGQGTTVTVSS : Emax (MFI) value = 1.31e+06 MFI

// PR000400 (antibody, human IgG1, kappa, V domains shown, also called IMAB362 analogue) VH: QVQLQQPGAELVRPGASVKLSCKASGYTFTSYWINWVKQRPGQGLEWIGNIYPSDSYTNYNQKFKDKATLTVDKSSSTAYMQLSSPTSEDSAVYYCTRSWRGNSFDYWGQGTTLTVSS VL: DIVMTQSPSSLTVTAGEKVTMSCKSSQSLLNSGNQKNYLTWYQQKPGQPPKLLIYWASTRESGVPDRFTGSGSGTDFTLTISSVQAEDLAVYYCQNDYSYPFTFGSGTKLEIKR : Emax (MFI) value = 1.32e+06 MFI

// PR007242 (antibody, human IgG1, V domains shown, HCDR2 PTM-removal mutant of PR004533; HCAb, human IgG1 Fc; also called 4533_M10E1) VH: EVQLVESGGGLVQPGGSLRLSCAASGFTFSSYWMHWVRQVPGKGLVWVSRINFDSSRTIYADSVKGRFTISRDNAKNTLYLQMNSLRAEDTAVYYCARGEDHDILTGYPIRGQGTTVTVSS : Emax (MFI) value = 1.48e+06 MFI
